Data origin, for the record: patent US8129396B2

System tested: VEGFR2 kinase (Homo sapiens, UniProt P35968)
Sequence (P35968 20-1356): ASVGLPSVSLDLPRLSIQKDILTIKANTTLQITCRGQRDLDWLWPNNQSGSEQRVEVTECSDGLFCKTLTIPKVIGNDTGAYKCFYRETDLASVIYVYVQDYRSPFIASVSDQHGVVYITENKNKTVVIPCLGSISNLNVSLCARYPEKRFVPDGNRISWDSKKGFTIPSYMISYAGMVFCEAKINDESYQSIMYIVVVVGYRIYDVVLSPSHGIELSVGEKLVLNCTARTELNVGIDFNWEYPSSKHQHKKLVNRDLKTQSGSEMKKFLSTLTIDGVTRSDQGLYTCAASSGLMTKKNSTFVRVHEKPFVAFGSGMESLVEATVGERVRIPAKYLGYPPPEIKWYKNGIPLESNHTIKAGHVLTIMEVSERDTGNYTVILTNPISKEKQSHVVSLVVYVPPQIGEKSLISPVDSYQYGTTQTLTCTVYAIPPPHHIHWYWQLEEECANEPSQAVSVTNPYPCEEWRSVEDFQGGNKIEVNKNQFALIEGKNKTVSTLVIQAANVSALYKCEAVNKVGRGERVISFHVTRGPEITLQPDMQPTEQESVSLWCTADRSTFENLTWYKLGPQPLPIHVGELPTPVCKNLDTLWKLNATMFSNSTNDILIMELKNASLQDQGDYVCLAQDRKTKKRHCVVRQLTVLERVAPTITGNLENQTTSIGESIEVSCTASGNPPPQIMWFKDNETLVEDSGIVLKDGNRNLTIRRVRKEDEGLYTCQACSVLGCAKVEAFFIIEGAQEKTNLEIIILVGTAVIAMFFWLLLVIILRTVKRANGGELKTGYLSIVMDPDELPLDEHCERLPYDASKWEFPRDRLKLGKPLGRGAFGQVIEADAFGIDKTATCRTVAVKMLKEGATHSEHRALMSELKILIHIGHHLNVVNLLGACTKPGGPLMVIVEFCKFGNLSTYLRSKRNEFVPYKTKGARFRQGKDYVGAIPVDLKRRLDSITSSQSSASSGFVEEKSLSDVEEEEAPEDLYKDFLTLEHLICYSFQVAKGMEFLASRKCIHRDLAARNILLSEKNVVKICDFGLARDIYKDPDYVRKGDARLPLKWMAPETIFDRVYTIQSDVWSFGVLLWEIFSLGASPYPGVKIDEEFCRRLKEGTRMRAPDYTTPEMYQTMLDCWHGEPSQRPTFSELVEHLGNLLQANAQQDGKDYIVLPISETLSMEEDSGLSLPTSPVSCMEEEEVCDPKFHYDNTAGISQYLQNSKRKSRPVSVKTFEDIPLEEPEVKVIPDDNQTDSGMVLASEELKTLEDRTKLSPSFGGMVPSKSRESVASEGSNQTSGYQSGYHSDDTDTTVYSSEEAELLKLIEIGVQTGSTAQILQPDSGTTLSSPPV
pIC50: −log10 of the molar value.
Measurement label: pIC50

{"columns": ["Compound", "Measurement"],
 "data": [
  ["NC(=O)/C(=C1\\Nc2ccc(NCCN3CCOCC3)cc2S1)c1nccc(C(F)(F)F)n1 [Compound 124A]", 7.00]
]}

(A) NC(=O)/C(=C1\Nc2ccc(NC(=O)[C@@H]3CCCN3)cc2N1)c1nccc(C(F)(F)F)n1 [Compound 80A]
(B) NC(=O)/C(=C1\Nc2ccccc2S1)c1nc(OCCN2CCOCC2)cc(C(F)(F)F)n1 [Compound 14A]
**Query** Could you kindly indicate whether A or B has the higher pIC50 value? Lab log: write the label of the selected item as the result.
**Result** A
(A: 7.30, B: 7.10)
